Origin of values: ChEMBL document CHEMBL4261490

Protocol details: Selectivity index, ratio of ED50 for human HaCaT cells to MIC for Pseudomonas aeruginosa PAO1 ATCC 15692
Format: toxicity
Condition description: read-out: Selectivity Index
Square brackets hold non-standard residues; d marks the D form. Peptide text beside a SMILES is read from it. Gly(Nα-4-Cl-benzyl) = O=C(O)CNCc1ccc(Cl)cc1; Nspe = C[C@H](NCC(=O)O)c1ccccc1; NhArg = N=C(N)NCCCCNCC(=O)O; Nlys = NCCCCNCC(=O)O
Quantity measured: selectivity ratio
I'd appreciate a reply containing only the number, no unit.

Look over these answered cases.
Compound: COc1ccc(CN(CC(N)=O)C(=O)CN(Cc2ccc(OC)cc2)C(=O)CN(CCCCN)C(=O)CN(Cc2ccc(OC)cc2)C(=O)CN(Cc2ccc(OC)cc2)C(=O)CN(CCCCN)C(=O)CN(Cc2ccc(OC)cc2)C(=O)CN(Cc2ccc(OC)cc2)C(=O)CN(CCCCN)C(=O)CN(Cc2ccc(OC)cc2)C(=O)CN(Cc2ccc(OC)cc2)C(=O)CNCCCCN)cc1
selectivity ratio: 0

Compound: CC(c1ccccc1)N(CC(=O)N(CCCCN)CC(=O)N(CC(=O)N(CC(=O)N(CCCCN)CC(=O)N(CC(=O)N(CC(N)=O)[C@@H](C)c1ccccc1)[C@@H](C)c1ccccc1)Cc1ccc(F)cc1)Cc1ccc(F)cc1)C(=O)CN(C(=O)CNCCCCN)[C@@H](C)c1ccccc1 (single isomer, unassigned)
selectivity ratio: 3

Compound: C[C@@H](c1ccccc1)N(CC(N)=O)C(=O)CN(C(=O)CN(CCCCNC(=N)N)C(=O)CN(C(=O)CN(C(=O)CN(CCCCNC(=N)N)C(=O)CN(C(=O)CN(C(=O)CN(CCCCNC(=N)N)C(=O)CN(C(=O)CN(C(=O)CNCCCCNC(=N)N)[C@@H](C)c1ccccc1)[C@@H](C)c1ccccc1)[C@@H](C)c1ccccc1)[C@@H](C)c1ccccc1)[C@@H](C)c1ccccc1)[C@@H](C)c1ccccc1)[C@@H](C)c1ccccc1 (H-[NhArg][Nspe][Nspe][NhArg][Nspe][Nspe][NhArg][Nspe][Nspe][NhArg][Nspe][Nspe]-NH2)
selectivity ratio: 2

Compound: NCCCCNCC(=O)N(CC(=O)N(CC(=O)N(CCCCN)CC(=O)N(CC(=O)N(CC(=O)N(CCCCN)CC(=O)N(CC(=O)N(CC(N)=O)Cc1ccc(Cl)cc1)Cc1ccc(Cl)cc1)Cc1ccc(Cl)cc1)Cc1ccc(Cl)cc1)Cc1ccc(Cl)cc1)Cc1ccc(Cl)cc1 (H-[Nlys][Gly(Nα-4-Cl-benzyl)][Gly(Nα-4-Cl-benzyl)][Nlys][Gly(Nα-4-Cl-benzyl)][Gly(Nα-4-Cl-benzyl)][Nlys][Gly(Nα-4-Cl-benzyl)][Gly(Nα-4-Cl-benzyl)]-NH2)
selectivity ratio: 1

Query: Please report selectivity ratio for the following compound: C[C@@H](c1ccccc1)N(CC(N)=O)C(=O)CN(C(=O)CN(CCCCN)C(=O)CN(C(=O)CN(C(=O)CN(CCCCN)C(=O)CN(C(=O)CN(C(=O)CN(CCCCNC(=N)N)C(=O)CN(C(=O)CN(C(=O)CNCCCCNC(=N)N)[C@@H](C)c1ccccc1)[C@@H](C)c1ccccc1)[C@@H](C)c1ccccc1)[C@@H](C)c1ccccc1)[C@@H](C)c1ccccc1)[C@@H](C)c1ccccc1)[C@@H](C)c1ccccc1 (H-[NhArg][Nspe][Nspe][NhArg][Nspe][Nspe][Nlys][Nspe][Nspe][Nlys][Nspe][Nspe]-NH2)
Result: 1
